# measured.on: Metabotropic glutamate receptor 8 (Rattus norvegicus)
# experiment: mGluR8 Gi/Go-coupled signaling modulation – cell-based, rat, thallium flux, HTS, primary screen (AID 488969)
# experimental.context: HEK293 rat mGluR8, GIRK (G protein-gated inwardly rectifying potassium channel) thallium flux, FluoZin2; at 10 µM; stronger effect = higher value; submaximal glutamate (EC20) added with thallium
In all, about 110,000 compounds were measured (“z-score”: median about -0.1, highest 2% from about 2 on). The entries come from a sample that favours the highest values as a whole.
quantity.measured: z-score
Format: numeric value only, no unit, no commentary.

Record CC(C)Cc1cc(C(=O)Nc2sc3c(c2C#N)CCC3)no1 , field z-score: 1.32

Record COC(=O)c1ccc(NS(=O)(=O)c2ccc(SC)cc2)cc1 , field z-score: 5.24

Record N#Cc1c(NC(=S)NC(=O)c2ccccc2)sc2c1CCC2 , field z-score: 0.849

Record O=C(CN1CCN(c2ccccc2)CC1)Nc1ccc(-n2cnnn2)cc1 , field z-score: 0.659

Record COc1ccc(-c2nnnn2C)cc1S(=O)(=O)NCCc1ccccc1 , field z-score: 1.29

Record C/C(=N\Nc1ccc([N+](=O)[O-])cc1[N+](=O)[O-])c1ccc(-n2nncc2C(C)(C)C)cc1 , field z-score: -2.37

Record Cc1cc(C(=O)Nc2sc3c(c2C#N)CCC3)no1 , field z-score: -0.0664

Record Cc1onc(-c2ccccc2)c1C(=O)Nc1sc2c(c1C#N)CCC(C)C2 (stereo unspecified) , field z-score: 0.289

Record Cc1onc(-c2ccccc2)c1C(=O)NC(=S)Nc1sc2c(c1C#N)CCCC2 , field z-score: 4.1

Record N#Cc1c(NC(=S)NC(=O)c2ccccc2)sc2c1CCCC2 , field z-score: 0.0146

Record CCNC(=S)N(Cc1ccco1)Cc1cc2cc3c(cc2[nH]c1=O)OCCO3 , field z-score: 0.158
